- measured on: recombinant human P-gp (Homo sapiens)
- Sequence (P08183 whole entry): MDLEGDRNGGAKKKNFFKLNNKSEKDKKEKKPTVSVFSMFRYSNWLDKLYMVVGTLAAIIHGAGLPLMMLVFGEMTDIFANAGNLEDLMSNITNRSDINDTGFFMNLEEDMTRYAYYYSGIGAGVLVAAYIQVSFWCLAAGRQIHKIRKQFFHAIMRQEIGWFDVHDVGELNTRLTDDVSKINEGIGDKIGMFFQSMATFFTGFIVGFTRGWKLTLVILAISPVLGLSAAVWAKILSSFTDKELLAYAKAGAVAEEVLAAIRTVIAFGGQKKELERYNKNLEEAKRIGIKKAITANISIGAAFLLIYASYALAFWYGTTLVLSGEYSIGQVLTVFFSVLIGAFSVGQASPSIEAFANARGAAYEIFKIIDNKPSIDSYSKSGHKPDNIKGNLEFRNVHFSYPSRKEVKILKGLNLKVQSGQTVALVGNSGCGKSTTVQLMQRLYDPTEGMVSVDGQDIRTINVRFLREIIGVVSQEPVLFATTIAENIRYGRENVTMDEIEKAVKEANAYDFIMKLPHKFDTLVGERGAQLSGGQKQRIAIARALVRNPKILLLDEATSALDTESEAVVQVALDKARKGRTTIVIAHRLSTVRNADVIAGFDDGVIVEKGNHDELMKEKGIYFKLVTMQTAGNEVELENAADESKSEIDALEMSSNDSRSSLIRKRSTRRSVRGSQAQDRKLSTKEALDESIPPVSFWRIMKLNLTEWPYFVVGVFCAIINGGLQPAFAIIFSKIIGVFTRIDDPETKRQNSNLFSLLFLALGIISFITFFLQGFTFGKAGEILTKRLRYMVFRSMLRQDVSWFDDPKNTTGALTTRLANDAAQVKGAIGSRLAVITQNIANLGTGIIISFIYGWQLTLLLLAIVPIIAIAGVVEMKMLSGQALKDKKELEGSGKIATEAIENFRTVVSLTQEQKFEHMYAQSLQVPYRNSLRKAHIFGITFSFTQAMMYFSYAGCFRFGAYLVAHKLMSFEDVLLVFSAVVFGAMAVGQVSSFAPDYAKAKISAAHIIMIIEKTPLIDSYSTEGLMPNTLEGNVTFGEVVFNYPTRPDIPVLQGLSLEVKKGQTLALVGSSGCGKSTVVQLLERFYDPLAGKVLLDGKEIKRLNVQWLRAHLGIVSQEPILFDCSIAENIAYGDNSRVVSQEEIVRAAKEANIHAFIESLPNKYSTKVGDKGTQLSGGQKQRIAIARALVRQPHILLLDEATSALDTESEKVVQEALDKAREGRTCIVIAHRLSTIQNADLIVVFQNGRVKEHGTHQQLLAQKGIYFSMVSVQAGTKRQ
- applied conditions: human
Assignment: determine reported Fold stimulation of basal P-gp-ATPase activity for the given molecules.
The answer is to be given in fold; state only the numeric part.

Query string: Quick check: Fold stimulation of basal P-gp-ATPase activity of `C=CCN1CC[C@]23c4c5ccc(O)c4O[C@H]2C(=O)CC[C@@]3(O)[C@H]1C5` ?
Result string: 1.25

Query string: Follow-up entry: `CN1CC[C@]23c4c5ccc(O)c4O[C@H]2CC=C[C@H]3[C@H]1C5`
Result string: 1.01

Query string: Follow-up entry: `COc1ccc2c3c1O[C@H]1CC=C[C@H]4[C@@H](C2)N(C)CC[C@]314`
Result string: 1.31

Query string: Follow-up entry: `CN1CC[C@]23c4c5ccc(O)c4O[C@H]2C(=O)CC[C@@]3(O)[C@H]1C5`
Result string: 1.12
